- method-notes: Cytotoxicity, MTT reduction assay, HELA cells
- Type: cell-based
- assay-context: human, HELA cells (Acc57), 12.5-50 μM
Bridge positions count the residues as written; N and C are the ends. Square brackets hold non-standard residues; d marks the D form. Peptide text beside a SMILES is read from it. * marks the point of attachment. Lauroyl = CCCCCCCCCCCC(=O)*; Decanoyl = CCCCCCCCCC(=O)*; Octanoyl = CCCCCCCC(=O)*; Dab = NCC[C@H](N)C(=O)O
measured-endpoint: GI50 at 48 h

For orientation, consider the following solved cases.
Query: Item CCCCCCCCCC(=O)NCCCC[C@@H]1NC(=O)[C@H](Cc2ccc(O)cc2)NC(=O)[C@@H]2CSSC[C@H](NC(=O)[C@H]([C@@H](C)O)NC(=O)[C@H](Cc3c[nH]cn3)NC(=O)[C@H](Cc3ccc(O)cc3)NC(=O)[C@@H]3CCCN3C(=O)[C@H]3CCCN3C(=O)[C@H](CCCCN)NC1=O)C(=O)N[C@@H](CCCNC(=N)N)C(=O)NCC(=O)N1CCC[C@@H]1C(=O)N[C@@H](CCN)C(=O)N[C@@H](CCCNC(=N)N)C(=O)N[C@@H](Cc1ccc(O)cc1)C(=O)N2 [Ex. 15] (cyclo(YHTCRG[dP][Dab]RYCYK(Decanoyl)K[dP]P); disulfide 4-11) has what recorded GI50 at 48 h?
Reply: > 50 µM

Query: # lookup: GI50 at 48 h of CCCCCCCCCCCC(=O)NCCCC[C@@H]1NC(=O)[C@H](Cc2ccc(O)cc2)NC(=O)[C@@H]2CSSC[C@H](NC(=O)[C@H](C)NC(=O)[C@H](Cc3c[nH]cn3)NC(=O)[C@H](Cc3ccc(O)cc3)NC(=O)[C@@H]3CCCN3C(=O)[C@H]3CCCN3C(=O)[C@H](CCCCN)NC1=O)C(=O)N[C@@H](CCCNC(=N)N)C(=O)N[C@@H](C)C(=O)N1CCC[C@@H]1C(=O)N[C@@H](CCN)C(=O)N[C@@H](CCCNC(=N)N)C(=O)N[C@@H](Cc1ccc(O)cc1)C(=O)N2 [Ex. 17] (cyclo(YHACRA[dP][Dab]RYCYK(Lauroyl)K[dP]P); disulfide 4-11)
Reply: > 44 µM

Query: Look at this compound and give its reported GI50 at 48 h. CCCCCCCCCCCC(=O)NCC[C@@H]1NC(=O)[C@H](Cc2ccc(O)cc2)NC(=O)[C@@H]2CCCN2C(=O)[C@H]2CCCN2C(=O)[C@H](CCCCN)NC(=O)[C@H](CCC(N)=O)NC(=O)[C@H](Cc2ccc(O)cc2)NC(=O)[C@@H]2CSSC[C@H](NC(=O)[C@H](C)NC1=O)C(=O)N[C@@H](CCCNC(=N)N)C(=O)N[C@@H](C)C(=O)N1CCC[C@@H]1C(=O)N[C@@H](CCN)C(=O)N[C@@H](CCCNC(=N)N)C(=O)N[C@@H](Cc1ccc(O)cc1)C(=O)N2 [Ex. 1] (cyclo(Y[Dab](Lauroyl)ACRA[dP][Dab]RYCYQK[dP]P); disulfide 4-11)
Reply: > 28 µM

Next:
Query: Find the recorded GI50 at 48 h belonging to CCCCCCCC(=O)NCCCC[C@@H]1NC(=O)[C@H](Cc2c[nH]cn2)NC(=O)[C@H](Cc2ccc(O)cc2)NC(=O)[C@@H]2CCCN2C(=O)[C@H]2CCCN2C(=O)[C@H](CCCCN)NC(=O)[C@H](CCC(N)=O)NC(=O)[C@H](Cc2ccc(O)cc2)NC(=O)[C@@H]2CSSC[C@H](NC1=O)C(=O)N[C@@H](CO)C(=O)N[C@@H](C)C(=O)N1CCC[C@@H]1C(=O)N[C@@H](CCN)C(=O)N[C@@H](CCCNC(=N)N)C(=O)N[C@@H](Cc1ccc(O)cc1)C(=O)N2 [Ex. 3] (cyclo(YHK(Octanoyl)CSA[dP][Dab]RYCYQK[dP]P); disulfide 4-11) and report it.
Reply: > 45 µM
